system: DU-145 prostate; experiment: NCI tumour cell line growth inhibition, 48 h
Readout Name: TGI

Previously resolved entries follow.
[
  {
    "Compound": "COc1cc(OC)c2c(=O)c(OC)c(-c3ccc4c(c3)OCO4)oc2c1",
    "TGI": "> 100 µM"
  },
  {
    "Compound": "CC1=CC(=O)N(n2c(Cc3ccccc3)n[nH]c2=O)C1=O",
    "TGI": "> 100 µM"
  },
  {
    "Compound": "O=S1(=O)N(CCNc2nccc(-c3c(-c4cccc(O)c4)nc4sccn34)n2)CCN1Cc1ccccc1",
    "TGI": "26.1 µM"
  },
  {
    "Compound": "Nc1ncn(C2CC(O)C(CO)O2)c(=O)n1 (stereo not drawn)",
    "TGI": "> 375 µM"
  },
  {
    "Compound": "COc1cc(/C=C2\\CN(C)CC3=C2NC(=S)NC3c2cc(OC)c(OC)c(OC)c2)cc(OC)c1OC (stereo not drawn)",
    "TGI": "> 100 µM"
  },
  {
    "Compound": "O=C(O)Cc1cccc2c1OC(c1ccccc1)C(Cl)(C(=O)c1ccccc1)C2=O (stereo not drawn)",
    "TGI": "65.3 µM"
  },
  {
    "Compound": "NNc1nncc2n[nH]nc12",
    "TGI": "> 100 µM"
  }
]

# next compound below
Challenge: Recorded TGI for c1cc2c(ncc3cscc32)s1 , please?
Response given: > 100 µM

====

system: SF-295 CNS; experiment: NCI tumour cell line growth inhibition, 48 h
Decide by TGI: equal to or exceeding 30 µM means yes, less means no.

[
  {
    "Compound": "COc1cc(O)c2c(c1)OCC(Cc1ccc(O)cc1)C2=O (centres undefined)",
    "Cat": "yes"
  },
  {
    "Compound": "COc1ccc(/C(Cl)=C(\\C=O)c2ccc([N+](=O)[O-])cc2)cc1",
    "Cat": "yes"
  },
  {
    "Compound": "NC(CCC(=O)O)C(=O)N1CCN(c2nc(N3CCCC3)c3nc(Cl)c(NCc4ccccc4)nc3n2)CC1 (centres undefined)",
    "Cat": "no"
  },
  {
    "Compound": "O=C(O)Cc1cccc2c1OC(c1ccccc1)C(Cl)(C(=O)c1ccccc1)C2=O (centres undefined)",
    "Cat": "yes"
  },
  {
    "Compound": "O=C(/C=C/c1c(O)ccc2ccccc12)c1ccccc1",
    "Cat": "yes"
  },
  {
    "Compound": "COC(=O)C(NC(=O)c1ccccc1)c1ccco1 (centres undefined)",
    "Cat": "yes"
  },
  {
    "Compound": "Cc1ccc(NC(=O)c2sc3nc(C)c(C(O)c4ccccc4)cc3c2N)cc1 (centres undefined)",
    "Cat": "no"
  },
  {
    "Compound": "CC(C)N1CN(C(C(=O)N[C@@H]2C(=O)N3C2SC(C)(C)C3C(=O)O)c2ccccc2)CSC1=S (some centres undefined)",
    "Cat": "yes"
  },
  {
    "Compound": "CC[CH2][Sn]([Cl])([Cl])[CH2]CC.Oc1ccccc1C=NCCN=Cc1ccccc1O",
    "Cat": "yes"
  },
  {
    "Compound": "COC(=O)C(=O)C(C(=O)C=C(C)C)C(=O)C(=O)Nc1ccc(C)cc1C (centres undefined)",
    "Cat": "yes"
  }
]

Challenge: Would you say COc1ccc(C2=Nn3c(nnc(Cc4ccc(Cl)cc4)c3=O)SC2)cc1 shows TGI at minimum 30 µM?
Response given: yes

Challenge: Would you say CCOP(=O)(O)C1C(CO)OC(n2ccc(=O)[nH]c2=O)C1O (centres undefined) shows TGI at minimum 30 µM?
Response given: yes

Challenge: Would you say COc1cc(OC)c2c(=O)c(OC)c(-c3ccc4c(c3)OCO4)oc2c1 shows TGI at minimum 30 µM?
Response given: yes

Challenge: Would you say Cc1ccc(-c2c3nc(c(-c4ccc(C)cc4)c4ccc([nH]4)c(-c4ccc(OCC5COC(C)(C)O5)cc4)c4nc(c(-c5ccc(C)cc5)c5ccc2[nH]5)C=C4)C=C3)cc1 (centres undefined) shows TGI at minimum 30 µM?
Response given: yes

Challenge: Would you say O=[N+]([O-])c1cccc2nc3ccccc3c(NCCC[N+]3([O-])CCOCC3)c12 shows TGI at minimum 30 µM?
Response given: no

Challenge: Would you say Cc1ccccc1N=Nc1ccc(N/N=C2/CCCNC2=O)c(C)c1 shows TGI at minimum 30 µM?
Response given: yes

Challenge: Would you say C=CCc1cc(-c2cc(CC=C)c(O)c(CNCCCl)c2)cc(CNCCCl)c1O shows TGI at minimum 30 µM?
Response given: yes

Challenge: Would you say COC(=O)CCc1cc(O)c2c(c1)C(C(=O)OC)C(c1ccc(O)c(O)c1)O2 (centres undefined) shows TGI at minimum 30 µM?
Response given: yes

Challenge: Would you say CC(C)c1ccc(C(c2ccc(OCC(=O)O)cc2)c2ccc(C(C)C)cc(=O)c2O)c(O)c(=O)c1 shows TGI at minimum 30 µM?
Response given: yes
